# assayDetails: Equilibrium surface tension by maximum-bubble-pressure method
# Type: physicochemical
# measurementConditions: 0.1 wt % solution; cis and trans isomers; Table 7
measurementKind: EST of 0.1 wt % solution (dynes/cm)

Consider the reported EST of 0.1 wt % solution for these compounds:
| compound | EST of 0.1 wt % solution (dynes/cm) |
| --- | --- |
| CCC(O)(/C=C\C(O)(CC)CC)CC [Example 6 cis, 3,6-diethyl-4-octene-3,6-diol] | 54 |
| CC(C)CC(C)(O)/C=C\C(C)(O)CC(C)C (stereo not drawn) [Example 7 cis, 2,4,7,9-tetramethyl-5-decene-4,7-diol] | 58 |
| CC(C)CCC(C)(O)/C=C\C(C)(O)CCC(C)C (stereo not drawn) [Example 8 cis, 2,5,8,11-tetramethyl-6-dodecene-5,8-diol] | 68 |
| CC(C)CC(C)(O)/C=C/C(C)(O)CC(C)C (stereo not drawn) [Example 7 trans, 2,4,7,9-tetramethyl-5-decene-4,7-diol] | 34 |

(1) CC(C)CCC(C)(O)/C=C/C(C)(O)CCC(C)C (stereo not drawn) [Example 8 trans, 2,5,8,11-tetramethyl-6-dodecene-5,8-diol]
(2) CCC(O)(/C=C/C(O)(CC)CC)CC [Example 6 trans, 3,6-diethyl-4-octene-3,6-diol]
Which entry has a larger number for EST of 0.1 wt % solution, 1 or 2 ? Answer with the label corresponding to your selection.
2

* * *

# assayDetails: Water solubility (solubility limit)
# Type: physicochemical
# measurementConditions: water; cis and trans isomers; Table 7
measurementKind: solubility (µg/mL)

(P) CC(C)CCC(C)(O)/C=C/C(C)(O)CCC(C)C (stereo not drawn) [Example 8 trans, 2,5,8,11-tetramethyl-6-dodecene-5,8-diol]
(Q) CC(C)CC(C)(O)/C=C/C(C)(O)CC(C)C (stereo not drawn) [Example 7 trans, 2,4,7,9-tetramethyl-5-decene-4,7-diol]
(R) CCC(O)(/C=C\C(O)(CC)CC)CC [Example 6 cis, 3,6-diethyl-4-octene-3,6-diol]
(S) CCC(O)(/C=C/C(O)(CC)CC)CC [Example 6 trans, 3,6-diethyl-4-octene-3,6-diol]
Order the above compounds by increasing solubility. Ranked list of labels, please, in the requested order.
R, P, Q, S
